Origin of values: patent US6858210B1

# Maximum O.D. annotations
System: affinity purified β2GPI-dependent antiphospholipid antibody
TEST: Direct binding ELISA, nickel chelate-coated wells charged with recombinant β2GPI proteins (no cardiolipin)
Parameters: species or system human
CONDITIONS USED: Ab 6644; O.D. at 550 nm
MEASURE: Maximum O.D.

{"columns": ["MOLECULE", "MEASURE", "READOUT VALUE"],
 "data": [
  ["--345: recombinant β2GPI deletion mutant with domains 3, 4, 5 (protein) GRIICPPPSIPTFATLRVYKPSAGNNSLYRDTAVFECLPQHAMFGNDTITCTTHGNWTKLPECREVKCPFPSRPDNGFVNYPAKPTLYYKDKATFGCHDGYSLDGPEEIECTKLGNWSAMPSCKASCKLPVKKATVVYQGERVKIQEKFKNGMLHGDKVSFFCKNKEKKCSYTEDAQCIDGTIEVPKCFKEHSSLAFWKTDASDVKPCGHHHHHH", "Maximum O.D.", 0.048],
  ["123--: recombinant β2GPI deletion mutant with domains 1, 2, 3 (protein) GRTCPKPDDLPFSTVVPLKTFYEPGEEITYSCKPGYVSRGGMRKFICPLTGLWPINTLKCTPRVCPFAGILENGAVRYTTFEYPNTISFSCNTGFYLNGADSAKCTEEGKWSPELPVCAPIICPPPSIPTFATLRVYKPSAGNNSLYRDTAVFECLPQHAMFGNDTITCTTHGNWTKLPECGHHHHHH", "Maximum O.D.", 1.020],
  ["-2345: recombinant β2GPI deletion mutant with domains 2-5 (protein) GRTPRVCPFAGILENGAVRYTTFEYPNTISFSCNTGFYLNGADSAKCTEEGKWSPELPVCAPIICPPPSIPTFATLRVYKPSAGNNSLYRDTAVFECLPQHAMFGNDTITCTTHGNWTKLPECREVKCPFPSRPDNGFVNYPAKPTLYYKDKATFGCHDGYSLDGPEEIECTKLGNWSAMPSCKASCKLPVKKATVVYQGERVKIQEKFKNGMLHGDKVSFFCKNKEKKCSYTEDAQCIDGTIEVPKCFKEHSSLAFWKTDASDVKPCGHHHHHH", "Maximum O.D.", 0.041]
]}
